Reference for the values: paper PMC12332266

Assign RTCA, MEC (CI) to each entry below.
- Tested on: hiPSC-CM (iCell Cardiomyocytes^2)
- ASSAY_NAME: RTCA CardioECR assessment (impedance and electrophysiology parameters)
- CONDITION_LABEL: hiPSC-CM; change ≥20%; Table 2
Where a name gives a salt, the structure may show the parent alone.

Jot down RTCA, MEC (CI) (hiPSC-CM (iCell Cardiomyocytes^2)) of O=C1c2c(O)ccc(O)c2C(=O)c2c(NCCNCCO)ccc(NCCNCCO)c21 .
0.1 µM (CI, BR)

Jot down RTCA, MEC (CI) (hiPSC-CM (iCell Cardiomyocytes^2)) of Cc1nc(Nc2ncc(C(=O)Nc3c(C)cccc3Cl)s2)cc(N2CCN(CCO)CC2)n1 .
1 µM

Jot down RTCA, MEC (CI) (hiPSC-CM (iCell Cardiomyocytes^2)) of CC(=O)[C@]1(O)Cc2c(O)c3c(c(O)c2[C@@H](O[C@H]2C[C@H](N)[C@H](O)[C@H](C)O2)C1)C(=O)c1ccccc1C3=O .
0.1 µM (CI, BR)

Jot down RTCA, MEC (CI) (hiPSC-CM (iCell Cardiomyocytes^2)) of CC(C)C[C@H](NC(=O)[C@H](Cc1ccccc1)NC(=O)c1cnccn1)B(O)O .
0.03 µM

Jot down RTCA, MEC (CI) (hiPSC-CM (iCell Cardiomyocytes^2)) of CC[C@]1(O)C[C@@H]2CN(CCc3c([nH]c4ccccc34)[C@@](C(=O)OC)(c3cc4c(cc3OC)N(C)[C@H]3[C@@](O)(C(=O)OC)[C@H](OC(C)=O)[C@]5(CC)C=CCN6CC[C@]43[C@@H]65)C2)C1 .
0.3 µM

Jot down RTCA, MEC (CI) (hiPSC-CM (iCell Cardiomyocytes^2)) of CC(C)C[C@H](NC(=O)CNC(=O)c1cc(Cl)ccc1Cl)B1OC(=O)C(CC(=O)O)(CC(=O)O)O1 [Ixazomib Citrate] .
0.3 µM

Jot down RTCA, MEC (CI) (hiPSC-CM (iCell Cardiomyocytes^2)) of COc1cccc2c1C(=O)c1c(O)c3c(c(O)c1C2=O)C[C@@](O)(C(=O)CO)C[C@@H]3O[C@H]1C[C@H](N)[C@H](O)[C@H](C)O1 .
0.1 µM (CI)

Jot down RTCA, MEC (CI) (hiPSC-CM (iCell Cardiomyocytes^2)) of COc1cccc2c1C(=O)c1c(O)c3c(c(O)c1C2=O)C[C@@](O)(C(=O)CO)C[C@@H]3O[C@H]1C[C@H](N)[C@@H](O)[C@H](C)O1 [Epirubicin] .
0.3 µM (CI, BR (Q))

Jot down RTCA, MEC (CI) (hiPSC-CM (iCell Cardiomyocytes^2)) of CC(C)C[C@H](NC(=O)[C@H](CCc1ccccc1)NC(=O)CN1CCOCC1)C(=O)N[C@@H](Cc1ccccc1)C(=O)N[C@@H](CC(C)C)C(=O)[C@@]1(C)CO1 .
0.3 µM (CI, BR (Q))

Jot down RTCA, MEC (CI) (hiPSC-CM (iCell Cardiomyocytes^2)) of CCC1=C[C@@H]2CN(C1)Cc1c([nH]c3ccccc13)[C@@](C(=O)OC)(c1cc3c(cc1OC)N(C)[C@H]1[C@@](O)(C(=O)OC)[C@H](OC(C)=O)[C@]4(CC)C=CCN5CC[C@]31[C@@H]54)C2 .
0.1 µM

Jot down RTCA, MEC (CI) (hiPSC-CM (iCell Cardiomyocytes^2)) of CC(=O)O[C@H]1C(=O)[C@@]2(C)[C@H]([C@H](OC(=O)c3ccccc3)[C@]3(O)C[C@H](OC(=O)[C@H](O)[C@@H](NC(=O)c4ccccc4)c4ccccc4)C(C)=C1C3(C)C)[C@]1(OC(C)=O)CO[C@@H]1C[C@@H]2O .
0.3 µM

Jot down RTCA, MEC (CI) (hiPSC-CM (iCell Cardiomyocytes^2)) of CC[C@]1(O)C[C@H]2CN(CCc3c([nH]c4ccccc34)[C@@](C(=O)OC)(c3cc4c(cc3OC)N(C=O)[C@H]3[C@@](O)(C(=O)OC)[C@H](OC(C)=O)[C@]5(CC)C=CCN6CC[C@]43[C@@H]65)C2)C1 .
0.003 µM (CI)

###

- System: hiPSC-CM (iCell Cardiomyocytes^2)
- ASSAY_NAME: RTCA CardioECR assessment (impedance and electrophysiology parameters)
- CONDITION_LABEL: human, 72 h
Assign Beating rate (BR) MEC to each entry below.
Quick reminder: number only, in µM, skip the unit.

Consider the molecule O=C1c2c(O)ccc(O)c2C(=O)c2c(NCCNCCO)ccc(NCCNCCO)c21 [Mitoxantrone] and give its recorded Beating rate (BR) MEC.
0.1

Consider the molecule CC[C@]1(O)C[C@@H]2CN(CCc3c([nH]c4ccccc34)[C@@](C(=O)OC)(c3cc4c(cc3OC)N(C)[C@H]3[C@@](O)(C(=O)OC)[C@H](OC(C)=O)[C@]5(CC)C=CCN6CC[C@]43[C@@H]65)C2)C1 [Vinblastine] and give its recorded Beating rate (BR) MEC.
0.003

Consider the molecule COc1cccc2c1C(=O)c1c(O)c3c(c(O)c1C2=O)C[C@@](O)(C(=O)CO)C[C@@H]3O[C@H]1C[C@H](N)[C@@H](O)[C@H](C)O1 [Epirubicin] and give its recorded Beating rate (BR) MEC.
0.3

Consider the molecule Cc1nc(Nc2ncc(C(=O)Nc3c(C)cccc3Cl)s2)cc(N2CCN(CCO)CC2)n1 [Dasatinib] and give its recorded Beating rate (BR) MEC.
0.3

Consider the molecule C#Cc1cccc(Nc2ncnc3cc(OCCOC)c(OCCOC)cc23)c1 [Erlotinib] and give its recorded Beating rate (BR) MEC.
0.77

Consider the molecule CC(=O)[C@]1(O)Cc2c(O)c3c(c(O)c2[C@@H](O[C@H]2C[C@H](N)[C@H](O)[C@H](C)O2)C1)C(=O)c1ccccc1C3=O [Idarubicin] and give its recorded Beating rate (BR) MEC.
0.1

###

Assign hsa-miR-208b-3p fold change, intracellular to each entry below.
- Test system: hiPSC-CM (iCell Cardiomyocytes^2)
- ASSAY_NAME: Intracellular miRNA expression by RT-qPCR in hiPSC-CM pellets after 72-hour treatment
- CONDITION_LABEL: 0.3 µM, 72 h
Counter-ions that a name gives are not always drawn.
Field format: numeric only.

Consider the molecule CC(C)C[C@H](NC(=O)[C@H](CCc1ccccc1)NC(=O)CN1CCOCC1)C(=O)N[C@@H](Cc1ccccc1)C(=O)N[C@@H](CC(C)C)C(=O)[C@@]1(C)CO1 and give its recorded hsa-miR-208b-3p fold change, intracellular.
1.1

Consider the molecule CC(C)C[C@H](NC(=O)CNC(=O)c1cc(Cl)ccc1Cl)B1OC(=O)C(CC(=O)O)(CC(=O)O)O1 [Ixazomib Citrate] and give its recorded hsa-miR-208b-3p fold change, intracellular.
0.8

Consider the molecule Cc1nc(Nc2ncc(C(=O)Nc3c(C)cccc3Cl)s2)cc(N2CCN(CCO)CC2)n1 and give its recorded hsa-miR-208b-3p fold change, intracellular.
1.2

Consider the molecule CC[C@]1(O)C[C@H]2CN(CCc3c([nH]c4ccccc34)[C@@](C(=O)OC)(c3cc4c(cc3OC)N(C=O)[C@H]3[C@@](O)(C(=O)OC)[C@H](OC(C)=O)[C@]5(CC)C=CCN6CC[C@]43[C@@H]65)C2)C1 and give its recorded hsa-miR-208b-3p fold change, intracellular.
2.2

Consider the molecule Cc1cn(-c2cc(NC(=O)c3ccc(C)c(Nc4nccc(-c5cccnc5)n4)c3)cc(C(F)(F)F)c2)cn1 and give its recorded hsa-miR-208b-3p fold change, intracellular.
0.5

###

- Tested on: hiPSC-CM (iCell Cardiomyocytes^2)
- ASSAY_NAME: Intracellular miRNA expression by RT-qPCR in hiPSC-CM pellets after 72-hour treatment
- Protocol: Culture media change was performed every 2 days. Total RNA was extracted from hiPSC-CM using the miRNeasy 96 Kit (Qiagen, Hilden, Germany) following the manufacturer’s recommendations. After the extraction, RNA purity was assessed by NanoDrop™ 8000 Spectrophotometer (Thermo Fisher Scientific Inc.). 5–10 ng/μL of RNA per sample were reverse transcribed and pre-amplified by using the TaqMan™ Advanced miRNA cDNA Synthesis Kit (Thermo Fisher Scientific Inc.). […]
REPORTED_PROPERTY: miRNAs upregulated at the MEC overall (hiPSC-CM pellet)

Consider the compound CC[C@]1(O)C[C@H]2CN(CCc3c([nH]c4ccccc34)[C@@](C(=O)OC)(c3cc4c(cc3OC)N(C=O)[C@H]3[C@@](O)(C(=O)OC)[C@H](OC(C)=O)[C@]5(CC)C=CCN6CC[C@]43[C@@H]65)C2)C1 and give its recorded miRNAs upregulated at the MEC overall (hiPSC-CM pellet).
miR-126-3p

Consider the compound Cc1cn(-c2cc(NC(=O)c3ccc(C)c(Nc4nccc(-c5cccnc5)n4)c3)cc(C(F)(F)F)c2)cn1 and give its recorded miRNAs upregulated at the MEC overall (hiPSC-CM pellet).
miR-126-3p

Consider the compound O=P1(N(CCCl)CCCl)NCCCO1 (centres unmarked) [Cyclophosphamide] and give its recorded miRNAs upregulated at the MEC overall (hiPSC-CM pellet).
3 µM (96-5p, 182-5p, 185-3p, 208b-3p)
